assay: rat acute oral toxicity; details: in vivo
Doc: threshold 300 mg/kg (exclusive). Items with LD50 beneath it return Condition met; others return Condition not met.

INSERT INTO assay_data (molecule, cat) VALUES
  ('CCN', 'Condition not met'),
  ('COP(=S)(OC)SCc1nc(N)nc(N)n1', 'Condition not met'),
  ('O=C1C2(Cl)C3(Cl)C4(Cl)C(Cl)(Cl)C5(Cl)C3(Cl)C1(Cl)C5(Cl)C24Cl (configuration not stated)', 'Condition met'),
  ('CCOP(=O)(OCC)OCC', 'Condition not met'),
  ('CCCCC(=O)O', 'Condition not met'),
  ('O=C(C(Cl)(Cl)Cl)C(Cl)(Cl)Cl', 'Condition met');
